Experiment: Stability in aqueous solution under long-term storage conditions (related substances)
Type: physicochemical
Settings: 25° C., 75% RH
Method: In order to confirm the stability of each test substance in an aqueous solution, […] of each sample was dissolved in 1 ml of water to a concentration of 1 mg/ml, which was then charged to a glass vial, plugged with a rubber cap, sealed with an aluminum cap, and stored under long-term storage conditions (25° C., 75% RH). […]
Square brackets hold non-standard residues; d marks the D form. Peptide text beside a SMILES is read from it. ξ: configuration not given here. Pro(4-oxo) = O=C1CN[C@H](C(=O)O)C1; Hyp = O=C(O)[C@@H]1C[C@@H](O)CN1; Ile(3ξ) = CCC(C)[C@H](N)C(=O)O; pGlu = O=C1CC[C@@H](C(=O)O)N1; hSer = N[C@@H](CCO)C(=O)O
endpoint: Amount of related substances (after 12 weeks) (%)
One number for each entry, in %.

The following molecules have reported results that may help.
>  <molecule>
CC(C)C[C@H](NC(=O)CNC(=O)[C@H](CC(C)C)NC(=O)[C@H](CCC(N)=O)NC(=O)CNC(=O)[C@@H]1CC(=O)CN1)C(=O)N[C@@H](C)C(=O)NCC(=O)N1CCC[C@H]1C(=O)N[C@@H](CCCCN)C(=O)O [YDE-035] (H-[Pro(4-oxo)]GQLGLAGPK-OH)

>  <experimental result>
3.89

$$$$
>  <molecule>
CCC(C)[C@H](NC(=O)[C@H](CCC(N)=O)NC(=O)CNC(=O)[C@@H]1C[C@@H](O)CN1)C(=O)NCC(=O)N[C@@H](CC(C)C)C(=O)N[C@@H](C)C(=O)NCC(=O)N1CCC[C@H]1C(=O)N[C@@H](CCCCN)C(=O)O (some centres unmarked) [YDE-010] (H-[Hyp]GQ[Ile(3ξ)]GLAGPK-OH)

>  <experimental result>
4.39

$$$$
>  <molecule>
CC(C)C[C@H](NC(=O)CNC(=O)[C@H](CCC(=O)O)NC(=O)[C@H](CCC(N)=O)NC(=O)CNC(=O)[C@@H]1C[C@@H](O)CN1)C(=O)N[C@@H](C)C(=O)NCC(=O)N1CCC[C@H]1C(=O)N[C@@H](CCCCN)C(=O)O [YDE-001] (H-[Hyp]GQEGLAGPK-OH)

>  <experimental result>
3.92

$$$$
>  <molecule>
CC(C)C[C@H](NC(=O)CNC(=O)[C@H](CC(C)C)NC(=O)[C@H](CCC(N)=O)NC(=O)CNC(=O)[C@@H]1CCC(=O)N1)C(=O)N[C@@H](C)C(=O)NCC(=O)N1CCC[C@H]1C(=O)N[C@@H](CCCCN)C(=O)O [YDE-036] ([pGlu]GQLGLAGPK-OH)

>  <experimental result>
8.77

$$$$
>  <molecule>
CC(C)C[C@H](NC(=O)[C@@H]1CCCN1C(=O)CNC(=O)[C@H](C)NC(=O)[C@H](CC(C)C)NC(=O)CNC(=O)[C@H](CC(C)C)NC(=O)[C@H](CCC(N)=O)NC(=O)CNC(=O)[C@@H]1C[C@@H](O)CN1)C(=O)O [YDE-030] (H-[Hyp]GQLGLAGPL-OH)

>  <experimental result>
2.74

$$$$

Please state, for each entry, its recorded Amount of related substances (after 12 weeks).
1. CC(C)C[C@H](NC(=O)[C@H](Cc1c[nH]c2ccccc12)NC(=O)[C@H](CC(=O)O)NC(=O)[C@H](CCC(N)=O)NC(=O)CNC(=O)[C@@H]1C[C@@H](O)CN1)C(=O)N[C@@H](C)C(=O)NCC(=O)N1CCC[C@H]1C(=O)N[C@@H](CCCCN)C(=O)O [YDE-021] (H-[Hyp]GQDWLAGPK-OH)
2. CC(C)C[C@H](NC(=O)CNC(=O)[C@H](Cc1c[nH]c2ccccc12)NC(=O)[C@H](CCC(N)=O)NC(=O)CNC(=O)[C@@H]1C[C@@H](O)CN1)C(=O)N[C@@H](C)C(=O)NCC(=O)N1CCC[C@H]1C(=O)N[C@@H](CCCCN)C(=O)O [YDE-014] (H-[Hyp]GQWGLAGPK-OH)
3. CC(C)C[C@H](NC(=O)[C@H](Cc1ccc(O)cc1)NC(=O)[C@H](CC(=O)O)NC(=O)[C@H](CCC(N)=O)NC(=O)CNC(=O)[C@@H]1C[C@@H](O)CN1)C(=O)N[C@@H](C)C(=O)NCC(=O)N1CCC[C@H]1C(=O)N[C@@H](CCCCN)C(=O)O [YDE-020] (H-[Hyp]GQDYLAGPK-OH)
4. CC(C)C[C@H](NC(=O)[C@H](Cc1ccccc1)NC(=O)[C@H](CC(=O)O)NC(=O)[C@H](CCC(N)=O)NC(=O)CNC(=O)[C@@H]1C[C@@H](O)CN1)C(=O)N[C@@H](C)C(=O)NCC(=O)N1CCC[C@H]1C(=O)N[C@@H](CCCCN)C(=O)O [YDE-019] (H-[Hyp]GQDFLAGPK-OH)

OUTPUT:
[21.33, 6.72, 21.54, 13.43]

List Amount of related substances (after 12 weeks) for every entry below, keeping the order given.
1. CCC(C)[C@H](NC(=O)[C@H](CC(=O)O)NC(=O)[C@H](CCC(N)=O)NC(=O)CNC(=O)[C@@H]1C[C@@H](O)CN1)C(=O)N[C@@H](CC(C)C)C(=O)N[C@@H](C)C(=O)NCC(=O)N1CCC[C@H]1C(=O)N[C@@H](CCCCN)C(=O)O (some centres unmarked) [YDE-016] (H-[Hyp]GQD[Ile(3ξ)]LAGPK-OH)
2. CC(C)C[C@H](NC(=O)[C@H](CO)NC(=O)[C@H](CC(=O)O)NC(=O)[C@H](CCC(N)=O)NC(=O)CNC(=O)[C@@H]1C[C@@H](O)CN1)C(=O)N[C@@H](C)C(=O)NCC(=O)N1CCC[C@H]1C(=O)N[C@@H](CCCCN)C(=O)O [YDE-023] (H-[Hyp]GQDSLAGPK-OH)
3. CNC(=O)C[C@H](NC(=O)[C@H](CCC(N)=O)NC(=O)CNC(=O)[C@@H]1C[C@@H](O)CN1)C(=O)NCC(=O)N[C@@H](CC(C)C)C(=O)N[C@@H](C)C(=O)NCC(=O)N1CCC[C@H]1C(=O)N[C@@H](CCCCN)C(=O)O [YDE-028] (H-[Hyp]GQD(NHMe)GLAGPK-OH)
4. CC(C)C[C@H](NC(=O)CNC(=O)[C@H](C)NC(=O)[C@H](CCC(N)=O)NC(=O)CNC(=O)[C@@H]1C[C@@H](O)CN1)C(=O)N[C@@H](C)C(=O)NCC(=O)N1CCC[C@H]1C(=O)N[C@@H](CCCCN)C(=O)O [YDE-008] (H-[Hyp]GQAGLAGPK-OH)

OUTPUT:
[11.33, 30.66, 1.15, 4.42]

INPUT: Which Amount of related substances (after 12 weeks) value belongs to CC(C)C[C@H](NC(=O)CNC(=O)[C@H](CCO)NC(=O)[C@H](CCC(N)=O)NC(=O)CNC(=O)[C@@H]1C[C@@H](O)CN1)C(=O)N[C@@H](C)C(=O)NCC(=O)N1CCC[C@H]1C(=O)N[C@@H](CCCCN)C(=O)O [YDE-026] (H-[Hyp]GQ[hSer]GLAGPK-OH) ?
OUTPUT: 10.15

Data provenance: patent US11613558B2
